These measurements were taken from patent US9822139B2.

# Test system: leukemia (HL-60)
# assay-summary: MTT cytotoxicity assay, HL-60
# Format: cell-based, human
# applied-conditions: 72 h
assay-endpoint: IC50 (µM)
The figure you give is taken to be in µM; do not add the unit.

{"columns": ["compound", "tested-on", "result-value"],
 "data": [
  ["Cn1cc[n+](C)[c]1[Au-]12[c]3ccccc3-c3cccc([n+]31)-c1cccc[c]12.O=S(=O)([O-])C(F)(F)F", "leukemia (HL-60)", 0.48],
  ["CCn1cc[n+](CC)[c]1[Pt-2]12[c]3ccccc3-c3cccc([n+]31)-c1cccc[n+]12.F[P-](F)(F)(F)(F)F (stereo not shown)", "leukemia (HL-60)", 0.52],
  ["CCCCn1cc[n+](C[n+]2ccn(CCCC)[c]2[Au-]23[c]4ccccc4-c4cccc([n+]42)-c2cccc[c]23)[c]1[Au-]12[c]3ccccc3-c3cccc([n+]31)-c1cccc[c]12.O=S(=O)([O-])C(F)(F)F.O=S(=O)([O-])C(F)(F)F", "leukemia (HL-60)", 5.9]
]}

From here, focus on the item given below.
For CCCCn1cc[n+](C[n+]2ccn(CCCC)[c]2[Au-]23[c]4cc5ccccc5cc4-c4cc(-c5ccc(OC)cc5)cc([n+]42)-c2cc4ccccc4c[c]23)[c]1[Au-]12[c]3cc4ccccc4cc3-c3cc(-c4ccc(OC)cc4)cc([n+]31)-c1cc3ccccc3c[c]12.O=S(=O)([O-])C(F)(F)F.O=S(=O)([O-])C(F)(F)F , what is its reported IC50?
7.1
